Target: TDP-43 (Homo sapiens, UniProt Q13148 1-414)
Sequence (Q13148 whole entry): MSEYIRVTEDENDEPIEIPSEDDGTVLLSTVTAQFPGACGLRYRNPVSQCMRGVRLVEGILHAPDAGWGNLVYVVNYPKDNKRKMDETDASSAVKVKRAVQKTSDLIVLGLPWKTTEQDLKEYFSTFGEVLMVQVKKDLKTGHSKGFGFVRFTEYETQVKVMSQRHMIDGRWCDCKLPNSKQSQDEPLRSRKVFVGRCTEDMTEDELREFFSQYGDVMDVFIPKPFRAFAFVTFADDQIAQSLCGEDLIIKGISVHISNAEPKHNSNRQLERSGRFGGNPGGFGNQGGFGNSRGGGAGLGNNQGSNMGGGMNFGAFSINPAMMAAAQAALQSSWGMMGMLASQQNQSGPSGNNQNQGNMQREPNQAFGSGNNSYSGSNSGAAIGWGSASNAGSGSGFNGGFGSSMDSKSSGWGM
Assay: RNA Bind-n-Seq with designed 260-mer pool; 25 mM Tris-HCl, 150 mM KCl, 3 mM MgCl2, BSA (printed 500 mg/mL), 20 units/mL SUPERase IN; pH not stated; 500 nM RNA pool, 1 h, 4 C; TDP-43 5, 50, 500 nM; high values mean tight binding
Settings: protein: recombinant; tags: SBP (GST cleaved off with PreScission; pGEX-GST-SBP)
In all, about 9,900 sequences were measured (“r (bound/input frequency ratio)”: median about 0.7, highest 2% from about 6.5 on). This excerpt belongs to a sample that is enriched for the highest values.
Measurement type: binding signal

{"Binder": "ENSMUSG00000061578.854|Ksr2|32:36 (ssRNA) RNA: GGGAGUUCUACAGUCCGACGAUCGCUUCGAUAUCCGCAUGCUAAGAGCAAUACAGGAAAAGGUCAGGGGUGAGAACACACAUUGCCACUUCCUCCAGCUAGGACCUUUGAGCAUCACAUUGUGAAGCCAUCCAGGGACUUGGGGGUUAGGUCAGAGGUAUCAAUACAUCUCCGGAAACAUCGUCACAGAUACCUAGAGGUACUUCAUUGAUCCCUUGAAAAGCAUGUCUUAAUUCUGUUAAGAUGUCAAUCAAGAUUACACAUCUCACUGCUUCACAGGCCAUCAGGGCCCCAUUCUGAGGUCCUCUUGCGGUCGCACUAGUGUGGAAUUCUCGGGUGUCAAGG", "Measurement type": "binding signal", "Result": "0.103 R (bound/input frequency ratio)"}

Shifting focus to the binder that follows.
query: Write down binding signal measured for item ENSMUSG00000028439.143|Fam219a (ssRNA) RNA: GGGAGUUCUACAGUCCGACGAUCGCUUCGAUAUCCGCAUGCUAGCCACCCCCAGUCUUCUGUCUAUUGGUUCCAGGCUGGAAGCAAGAGAUAAGGCUGGCCUCCUGUGCCCCAUUGCCAUUUCACCCUAGCUCAAAGUCCAGGAGCCAGGCUUCCAGAAAGGCUCUUCAAGAGCAAGCUUAAGGAAAUACAGUGAGCCAAGUGGCUGUAUGAUAUGGUAUGGUAUGGUAUGGUAUGGUAUGGUAUGGUAUGCACAUGUGUGUGCAUGUGUGUGUGCCUGUGUGUGUGCGUGUGCGUGUGUGUACUCUUGCGGUCGCACUAGUGUGGAAUUCUCGGGUGUCAAGG
result: 5.96 R (bound/input frequency ratio)
